FYI, the data here is from patent US20080214537A1.

I'd be grateful if you could share measured pEC50 for these entries.
Biological target: human CB2 receptor (hCB2) (Homo sapiens, UniProt P34972)
Sequence (P34972 whole entry): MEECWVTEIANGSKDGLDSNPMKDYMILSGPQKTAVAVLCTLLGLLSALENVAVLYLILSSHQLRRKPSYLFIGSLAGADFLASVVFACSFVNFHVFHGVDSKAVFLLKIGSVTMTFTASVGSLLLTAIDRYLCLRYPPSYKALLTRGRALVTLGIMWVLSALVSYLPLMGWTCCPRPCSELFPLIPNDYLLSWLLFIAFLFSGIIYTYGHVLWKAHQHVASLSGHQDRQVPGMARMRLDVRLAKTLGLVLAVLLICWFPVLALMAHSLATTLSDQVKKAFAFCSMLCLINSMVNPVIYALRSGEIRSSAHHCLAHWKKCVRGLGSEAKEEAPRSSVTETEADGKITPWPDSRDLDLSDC
Assay: cAMP assay (LANCE TR-FRET) in CHO-K1 cells expressing hCB2
Details: CHO-K1 cells stably expressing hCB2; intracellular cAMP, NKH-477 prestimulated; average of at least three replicates
Experimental: The ability of compounds to act as agonists or inverse agonists at human CB2 and CB1 receptors (hCB2, hCB1, respectively) was determined by measuring changes in intracellular cAMP levels. […] Receptor mediated responses were determined by measuring changes in intracellular cAMP using LANCE cAMP detection kit (catalog #AD0264, PerkinElmer, Wellesley, Mass.) based on time-resolved fluorescence resonance energy transfer (TR-FRET). […]
One number for each entry, as −log10 of the molar value.

Solved entries (count: 6):
>>> print(df.to_string())
                                   molecule  value_observed
0  O=C(NCc1ccccc1)c1ccc2c(c1)C1C3CCC(C3)C1C(c1ccccc1)N2 (centres unmarked)            6.43
1  CCCCC(=O)Nc1ccc2c(c1)C1C3CCC(C3)C1C(c1ccc(C)cc1)N2 (centres unmarked)            7.18
2  NS(=O)(=O)c1ccc2c(c1)C1C3CCC(C3)C1C(c1ccccc1)N2 (centres unmarked)            7.75
3  O=S(=O)(c1ccc2c(c1)C1C3CCC(C3)C1C(c1cncnc1)N2)N1CCOCC1 (centres unmarked)            5.89
4  CCCCC(=O)Nc1ccc2c(c1)C1C3CCC(C3)C1C(c1ccccc1)N2 (centres unmarked)            8.16
5  CC(C)S(=O)(=O)Nc1ccc2c(c1)C1C3CCC(C3)C1C(c1ccccc1)N2 (centres unmarked)            8.79

What is its pEC50 for human CB2 receptor (hCB2) (Homo sapiens, UniProt P34972)? Entry: O=S(=O)(c1ccc2c(c1)C1C3CCC(C3)C1C(c1c(Cl)cccc1Cl)N2)N1CCCCC1 (centres unmarked)
7.10
